Values from ChEMBL document CHEMBL3098047

# assay_notes: Half life in CD-1 mouse hepatocytes at 10 uM by LC-MS/MS analysis
# Type: ADME, cell-based, Hepatocyte
property: half-life at 10 µM

Ask: If you can, please state the reported half-life at 10 µM value of NC(=O)c1c(F)ccc(OC(CO)c2nc(-c3ccc(C(F)(F)F)cc3)c(Br)o2)c1F (racemic) .
Result: 71.5 min

Ask: If you can, please state the reported half-life at 10 µM value of CC(Oc1ccc(F)c(C(N)=O)c1F)c1nc(-c2ccc(OC(F)(F)F)cc2)c(Br)o1 (racemic) .
Result: 101 min

Ask: If you can, please state the reported half-life at 10 µM value of CCc1oc(COc2ccc(F)c(C(N)=O)c2F)nc1-c1ccc(OC)cc1 .
Result: 23.4 min

Ask: If you can, please state the reported half-life at 10 µM value of CCCc1oc(COc2ccc(F)c(C(N)=O)c2F)nc1-c1ccc(Cl)cc1 .
Result: 17.9 min

----------
# Test system: Staphylococcus aureus
# assay_notes: Antibacterial activity against Staphylococcus aureus harboring FtsZ G196A mutant by broth microdilution method
# Assay type: functional
property: MIC

Ask: If you can, please state the reported MIC value of N#Cc1oc(COc2ccc(F)c(C(N)=O)c2F)nc1-c1ccc(C(F)(F)F)cc1 .
Result: > 64 µg/mL

Ask: If you can, please state the reported MIC value of NC(=O)c1c(F)ccc(OCc2nc(-c3ccc(Cl)cc3)co2)c1F .
Result: > 64 µg/mL

Ask: If you can, please state the reported MIC value of NC(=O)c1c(F)ccc(OCc2nc(-c3ccc(Cl)cc3)c(CCCO)o2)c1F .
Result: > 64 µg/mL

----------
# measured_on: Cell division protein FtsZ (Staphylococcus aureus) (UniProt P0A031)
# assay_notes: Inhibition of Staphylococcus aureus ATCC 29213 FtsZ-mediated cell division phenotype
property: MIC

Ask: If you can, please state the reported MIC value of NC(=O)c1c(F)ccc(OCc2nc(-c3ccc(OC(F)(F)F)cc3)c(C(F)(F)F)o2)c1F .
Result: 0.5 µg/mL

Ask: If you can, please state the reported MIC value of COc1oc(COc2ccc(F)c(C(N)=O)c2F)nc1-c1ccc(Cl)cc1 .
Result: 0.5 µg/mL

Ask: If you can, please state the reported MIC value of NC(=O)c1c(F)ccc(OCc2nc(-c3ccc(Cl)cc3)co2)c1F .
Result: 4 µg/mL

Ask: If you can, please state the reported MIC value of Cc1oc(COc2ccc(F)c(C(N)=O)c2F)nc1-c1ccc(Cl)cc1 .
Result: 0.5 µg/mL

Ask: If you can, please state the reported MIC value of NC(=O)c1c(F)ccc(OC(CO)c2nc(-c3ccc(C(F)(F)F)cc3)c(Br)o2)c1F (racemic) .
Result: 0.5 µg/mL

Ask: If you can, please state the reported MIC value of NC(=O)c1c(F)ccc(OCc2nc(-c3ccc(Cl)cc3)c(N)o2)c1F .
Result: > 64 µg/mL

Ask: If you can, please state the reported MIC value of NC(=O)c1c(F)ccc(OCc2nc(-c3ccc(C(F)(F)F)cc3)c(Br)o2)c1F .
Result: 0.12 µg/mL

----------
# measured_on: Cell division protein FtsZ (Staphylococcus aureus)
# Sequence (whole entry): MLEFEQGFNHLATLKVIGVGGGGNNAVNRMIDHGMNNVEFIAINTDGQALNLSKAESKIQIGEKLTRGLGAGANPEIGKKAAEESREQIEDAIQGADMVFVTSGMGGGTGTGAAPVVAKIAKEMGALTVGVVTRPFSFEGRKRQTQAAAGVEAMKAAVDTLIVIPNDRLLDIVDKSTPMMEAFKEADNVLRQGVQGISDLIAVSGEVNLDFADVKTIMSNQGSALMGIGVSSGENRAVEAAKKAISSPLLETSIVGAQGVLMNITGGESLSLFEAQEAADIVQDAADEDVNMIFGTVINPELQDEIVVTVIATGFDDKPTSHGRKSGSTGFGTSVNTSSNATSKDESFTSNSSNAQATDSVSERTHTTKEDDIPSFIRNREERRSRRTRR
# assay_notes: Inhibition of Staphylococcus aureus ATCC 29213 FtsZ-mediated cell division phenotype
I'd appreciate it if you could supply MIC values for the items below.
Dear colleague, please return just the value in µg/mL, with no unit written.

Ask: If you can, please state the reported MIC value of NC(=O)c1c(F)ccc(OC(CCC(=O)O)c2nc(-c3ccc(C(F)(F)F)cc3)c(Br)o2)c1F (racemic) .
Result: 8

Ask: If you can, please state the reported MIC value of NC(=O)c1c(F)ccc(OCc2nc(-c3ccc(Cl)cc3)c(Br)o2)c1F .
Result: 0.03

Ask: If you can, please state the reported MIC value of CC(Oc1ccc(F)c(C(N)=O)c1F)c1nc(-c2ccc(OC(F)(F)F)cc2)c(Br)o1 (racemic) .
Result: 0.12

Ask: If you can, please state the reported MIC value of NC(=O)c1c(F)ccc(OCc2nc3cc(Cl)cnc3s2)c1F .
Result: 0.5

Ask: If you can, please state the reported MIC value of NC(=O)c1c(F)ccc(OC(c2cccnc2)c2nc(-c3ccc(Cl)cc3)c(Br)o2)c1F (racemic) .
Result: 4
